- measured.target: Cytochrome P450 1A2 (Homo sapiens)
- test.method.notes: Cytochrome panel assay with activity outcomes
- condition.context: recombinant CYP, pro-luciferin dealkylation, luminescence, p450-cyp1a2; series mostly up to 57.1 µM
- Procedure: The P450 gene superfamily is involved in the metabolism and clearance of xenobiotics. This assay used various human CYP P450 isozymes to measure the dealkylation of various pro-luciferin substrates to luciferin. The luciferin is then measured by luminescence after the addition of a luciferase detection reagent. […] Inhibitors and some substrates limit the production of luciferin, and decrease measured luminescence. […] 8, Detection, 1 sec, ViewLux luminescent read […]
In all, about 16,000 compounds went through this assay and about 5,700 (36%) were called active. Roughly 24% stayed inconclusive and do not appear here. Calls follow the shape of the dose curve; as a rule, active = well fitted curve in the direction sought with a large enough effect; inconclusive = small, poorly fitted or top-dose-only effect, or effect the other way; inactive = no such curve, though single readings can be large or run the other way. The list shows a part of the results.
Outcomes: TRUE for active, FALSE for inactive

1. CN(CCc1ccc(Cl)c(Cl)c1)CCN1CCCCCC1 = TRUE
2. CCOC(=O)Cn1nc(C)n(-c2ccc(C)cc2)c1=O = FALSE
3. Cc1noc(C)c1-c1nccc(Nc2ccc(F)cc2)n1 = TRUE
4. CCOC(=O)CC1C(=O)NCCN1S(=O)(=O)c1ccc(Cl)c(Cl)c1 (centres undefined) = FALSE
5. Cc1nc(Sc2ccccc2)c(C#N)cc1-c1ccccc1 = TRUE
6. COc1ccc(-c2cc(C(F)(F)F)nc(N3CCOCC3)n2)cc1OC = TRUE
7. O=C(Cc1ccc(Cl)c(Cl)c1)OCCN1CCCC1 = TRUE
8. COc1cccc(-c2csc(N3CCN(C(=S)Nc4ccccc4)CC3)n2)c1 = TRUE
9. CNC(=S)NNC(=O)COc1ccccc1C = TRUE
10. CCOC(=O)CSC1=NC(=O)/C(=C\c2ccc(Cl)cc2)S1 = TRUE
11. CCOC(=O)c1cc2c(C)n(-c3ccc(C)cc3)c(C)c2ccc1=O = TRUE
12. O=C(Nc1cccc(OC(=O)c2cccnc2)c1)c1cccnc1 = TRUE
13. Cc1ccc(OCC(=O)Nn2cnc3ccccc32)cc1 = TRUE
14. COc1ccc(/C=N/n2cnc3c([nH]c4ccc(Br)cc43)c2=O)cc1CN1CCOCC1 = TRUE
15. O=C(N/N=C\c1ccc2c(c1)CCC2)c1ccccc1O = TRUE
16. O=C(Nc1ccc2nc(-c3ccc(Br)o3)[nH]c2c1)c1ccco1 = TRUE
17. O=C(Nc1cccc(NC(=O)c2ccc(-c3cccc(Br)c3)o2)c1)c1ccco1 = TRUE
18. COc1ccc(CC(=S)N2CCOCC2)cc1OC = FALSE
19. Cc1nc(Cl)c(C#N)cc1-c1ccccc1 = TRUE
20. N#Cc1ccc(C2=NC(C(F)(F)F)(C(F)(F)F)c3c(n(Cc4ccco4)c(=O)[nH]c3=O)N2)cc1 = FALSE
21. COc1ccc(C(=O)OC(C)CN2CCN(C)CC2)cc1OC (centres undefined) = FALSE
22. Cc1nonc1NC(=O)N1CCCC1 = FALSE
23. COc1ccc(-c2cc(C(F)(F)F)nc(N3CCN(C)CC3)n2)cc1OC = TRUE
24. CCOc1ccc(C(=O)Nc2ccc(NC(=O)c3ccco3)c(Cl)c2)cc1Br = FALSE

###

- measured.target: Cytochrome P450 1A2 (Homo sapiens)
- test.method.notes: Cytochrome panel assay with activity outcomes
- condition.context: recombinant CYP, pro-luciferin dealkylation, luminescence, p450-cyp1a2; series mostly up to 57.1 µM
Screen size: about 16,000 compounds; about 5,700 (36%) were called active. Roughly 24% stayed inconclusive and do not appear here. Calls follow the shape of the dose curve; as a rule, active = well fitted curve in the direction sought with a large enough effect; inconclusive = small, poorly fitted or top-dose-only effect, or effect the other way; inactive = no such curve, though single readings can be large or run the other way. Some of the results follow.
Classes used: 1.0 for active, 0.0 for inactive

1. CCC(=O)OCN1C(=O)C=CC1=O = 1.0
2. c1nc(NCCN2CCOCC2)c2cc(-c3ccoc3)ccc2n1 = 1.0
3. CS(=O)(=O)Nc1cccc(-c2cc(Nc3ccccc3)ncn2)c1 = 1.0
4. O=[N+]([O-])C1=CC=C2C(=NC3(CCCCC3)N2O)C1=NC1CCCCC1 = 1.0
5. CCN1C(=O)C=CC1=O = 0.0
6. CS(=O)(=O)Nc1cccc(-c2cc(NCc3ccccc3)ncn2)c1 = 1.0
7. Cc1cccc(NS(=O)(=O)c2c(C)n[nH]c2C)c1 = 0.0
8. O=C1Oc2ccccc2C2(O)C3CCCCCC3C12 (configuration not stated) = 0.0
9. Cc1nnc(NS(=O)(=O)c2ccc(N)cc2)s1 = 0.0
10. Cc1cccc(CNc2nc(-c3cccc(NS(C)(=O)=O)c3)nc3ccccc23)c1 = 1.0
11. CC(=O)NCCNc1ncnc2ccc(-c3c(C)noc3C)cc12 = 1.0
12. Cc1ccccc1-c1cncnc1NCc1cccs1 = 1.0

The measured values listed here are drawn from PubChem BioAssay AID1851.
